test: Inhibition of mouse GAT3 expressed in HEK293 cells assessed as [3H]GABA uptake preincubated for 25 mins followed by [3H]GABA/unlabeled GABA addition measured after 4 mins by liquid scintillation counting analysis
ENDPOINT LABEL: IC50 (µM)

>>> reported("O=C(O)[C@H]1CNCC[C@H]1CC/C=C/c1ccccc1Cc1ccccc1")
62.5
>>> reported("O=C(O)[C@H]1CNCC[C@H]1CCCC#Cc1ccccc1Cc1ccccc1")
37.6
>>> reported("O=C(O)[C@H]1CNCC[C@@H]1CCCC/C=C/c1ccccc1-c1ccccc1")
44.5

---

test: Inhibition of mouse GAT2 expressed in HEK293 cells assessed as [3H]GABA uptake preincubated for 25 mins followed by [3H]GABA/unlabeled GABA addition measured after 10 mins by liquid scintillation counting analysis
ENDPOINT LABEL: pIC50
Convention used: pIC50 is expressed as -log10 of the molar concentration.

Need pIC50 of O=C(O)[C@H]1CNCC[C@H]1CCCC/C=C/c1ccccc1-c1ccccc1 , thanks.
4.28
